# Target Desc: recombinant HTLV-1 IN (Human T-cell leukemia virus 1, UniProt P03362)
# Construct: made in house
# Sequence (P03362 1168-1462): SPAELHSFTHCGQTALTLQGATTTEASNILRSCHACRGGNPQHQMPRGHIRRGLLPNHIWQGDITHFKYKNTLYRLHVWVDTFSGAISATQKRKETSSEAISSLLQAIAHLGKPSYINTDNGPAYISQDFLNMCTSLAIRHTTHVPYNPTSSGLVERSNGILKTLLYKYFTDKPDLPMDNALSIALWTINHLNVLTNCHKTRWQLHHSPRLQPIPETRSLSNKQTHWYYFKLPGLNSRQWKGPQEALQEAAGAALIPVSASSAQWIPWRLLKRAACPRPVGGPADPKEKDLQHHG
# Protocol Notes: In vitro integration strand transfer assay with HTLV-1 IN
# Type: biochemical
# Measurement Setup: INSTI at 634 nM; Replicate 1
# Description: We used in vitro strand transfer assays to screen this small molecule library for its ability to inhibit recombinant HTLV-1 IN. […] Proteins were degraded by incubation with 30 μg of proteinase K (Roche) at 37 °C for 1 h. […] The data were analysed and the IC50 calculated as previously described. In brief, the DNA band that corresponds to the concerted integration product was quantified by densitometry in ImageLab 4.1 (Bio-Rad). […] Quantified data points were fitted to dose–response curves in Prism 9. […]
# label = satisfied if HTLV-1 IN strand transfer activity (No drug = 100) < 60% else not satisfied

Item Smiles | Assigned Label
CCN1CCn2c(c3c(c(O)c2=O)C(=O)N(Cc2ccc(F)c(Cl)c2)C3=O)C1=O | not satisfied
Cc1c2c(c(O)c(=O)n1Cc1ccc(F)c(Cl)c1)C(=O)N(C)C2=O | not satisfied
CN(C)C(=O)CCc1cnc2c(c1)c(N)c(C(=O)NCc1ccc(F)cc1F)c(=O)n2O | satisfied
O=C(NCc1ccc(F)cc1F)c1c(O)c2cccnc2n(O)c1=O | satisfied
CN(C)S(=O)(=O)c1cc(O)c(O)c2c1CN(Cc1ccc(F)c(Cl)c1)C2=O | not satisfied

###

# System: HTLV-1
# Protocol Notes: MT-2-Jurkat cell-to-cell HTLV-1 infection, proviral load by qPCR
# Assay type: cell-based
# Measurement Setup: Primate T-lymphotropic virus 1, read-out: HTLV-1 EC50 ± stdev, MT-2-Jurkat cell-to-cell infection, proviral load, n = 3
pEC50: −log10 of the molar value.

Item Smiles | Target Desc | pEC50
CN(C)C(=O)CCc1cnc2c(c1)c(N)c(C(=O)NCc1ccc(F)cc1F)c(=O)n2O | HTLV-1 | 8.78

###

# Target Desc: recombinant HTLV-1 IN (Human T-cell leukemia virus 1)
# Construct: made in house
# Protocol Notes: In vitro integration strand transfer assay with HTLV-1 IN
# Format: biochemical
# Measurement Setup: INSTI at 634 nM; Replicate 3
# class assignment by measured HTLV-1 IN strand transfer activity (No drug = 100): group 1 = under 20%, group 2 = from 20% up to 80%, group 3 = 80% and over

Compound | Assigned Label
O=C(O)/C(O)=C/C(=O)c1cc(OCc2ccccc2)cc(OCc2ccccc2)c1 [XZ320, reference compound] | group 2
Nc1c(C(=O)NCc2ccc(F)cc2F)c(=O)n(O)c2ncccc12 [XZ384] | group 2
Nc1c(C(=O)NCc2ccc(F)cc2F)c(=O)n(O)c2ncc(-c3ccccc3)cc12 [XZ420] | group 2
O=C(NCc1ccc(F)cc1F)c1c(O)c2cccnc2n(O)c1=O [XZ351] | group 2
Nc1c(C(=O)NCc2ccc(F)cc2F)c(=O)n(O)c2ncc(CCC(=O)NCCO)cc12 [XZ448] | group 1
Cc1c2c(c(O)c(=O)n1Cc1ccc(F)c(Cl)c1)C(=O)N(C)C2=O [XZ242] | group 3
Nc1c(C(=O)NCc2ccc(F)cc2F)c(=O)n(O)c2ncc(CCCO)cc12 [XZ423] | group 1
COC(=O)c1c(N)c2cccnc2n(O)c1=O [XZ462] | group 3

###

# Target Desc: recombinant HTLV-1 IN (Human T-cell leukemia virus 1)
# Construct: made in house
# Protocol Notes: In vitro integration strand transfer assay with HTLV-1 IN
# Format: biochemical
# Measurement Setup: integrase strand-transfer drug titration, n = 3; read-out: HTLV-1 IC50 ± stdev
pIC50: −log10 of the molar value.
Endpoint Name: pIC50

Compound | Endpoint Name | Reported
Nc1c(C(=O)NCc2ccc(F)cc2F)c(=O)n(O)c2ncc(CCCOCCO)cc12 | pIC50 | 6.77
Nc1c(C(=O)NCc2ccc(F)cc2F)c(=O)n(O)c2ncc(CCS(=O)(=O)c3ccccc3)cc12 | pIC50 | 6.94
Nc1c(C(=O)NCc2ccc(F)cc2F)c(=O)n(O)c2ncc(CCCCCCO)cc12 | pIC50 | 6.79
CC(C)n1c(C(=O)N(C)C)c2c(c(O)c1=O)C(=O)N(Cc1ccc(F)c(Cl)c1)CC2 [XZ236, reference compound] | pIC50 | 6.49

###

# Target Desc: recombinant HTLV-1 IN (Human T-cell leukemia virus 1, UniProt P03362)
# Construct: made in house
# Protocol Notes: In vitro integration strand transfer assay with HTLV-1 IN
# Format: biochemical
# Measurement Setup: Replicate 2; read-out: HTLV-1 IN strand transfer IC50

Molecule | IC50 / nM
CC(C)NC(=O)/C=C/c1cnc2c(c1)c(N)c(C(=O)NCc1ccc(F)cc1F)c(=O)n2O [XZ452] | 162
Nc1c(C(=O)NCc2ccc(F)cc2F)c(=O)n(O)c2ncc(-c3ccccc3)cc12 [XZ420] | 499
Nc1c(C(=O)NCc2ccc(F)cc2F)c(=O)n(O)c2ncc(CCCOCCO)cc12 [XZ432] | 156
Nc1c(C(=O)NCc2ccc(F)cc2F)c(=O)n(O)c2ncccc12 [XZ384] | 268
COC(=O)CCc1cnc2c(c1)c(N)c(C(=O)NCc1ccc(F)cc1F)c(=O)n2O [XZ434] | 217
Nc1c(C(=O)NCc2ccc(F)cc2F)c(=O)n(O)c2ncc(CCS(=O)(=O)c3ccccc3)cc12 [XZ446] | 85
CC(C)n1c(C(=O)N(C)C)c2c(c(O)c1=O)C(=O)N(Cc1ccc(F)c(Cl)c1)CC2 [XZ236, reference compound] | 504
Nc1c(C(=O)NCc2ccc(F)cc2F)c(=O)n(O)c2ncc(CCCCCCO)cc12 [XZ426] | 169

###

# Target Desc: recombinant HTLV-1 IN (Human T-cell leukemia virus 1)
# Construct: made in house
# Protocol Notes: In vitro integration strand transfer assay with HTLV-1 IN
# Format: biochemical
# Measurement Setup: INSTI at 634 nM; Replicate 2
HTLV-1 IN strand transfer activity (No drug = 100) listing for selected compounds.
Endpoint Name: HTLV-1 IN strand transfer activity (No drug = 100) (%)

Compound | Reported
Nc1c(C(=O)NCc2ccc(F)cc2F)c(=O)n(O)c2ncc(CCCCCO)cc12 | 26.7311
Nc1c(C(=O)NCc2ccc(F)cc2F)c(=O)n(O)c2ncccc12 | 24.1903
Nc1c(C(=O)NCc2ccc(F)cc2F)c(=O)n(O)c2ncc(CCS(=O)(=O)c3ccccc3)cc12 | 20.4545
COC(=O)c1c(Nc2ccc(-c3ccc(N)cc3)cc2)c2cccnc2n(O)c1=O | 94.791
CN(C)C(=O)c1nc(O)c(O)c2c1CCN(Cc1ccc(F)c(Cl)c1)C2=O | 55.8637
Nc1ccc(-c2ccc(Nc3cc(=O)n(O)c4ncccc34)cc2)cc1 | 81.7265
O=C(NNC(=O)c1cccc(O)c1O)c1ccccc1O | 107.975
COC(=O)c1c(N)c2cccnc2n(O)c1=O | 96.7056
CN(C)S(=O)(=O)c1cc(O)c(O)c2c1CN(Cc1ccc(F)c(Cl)c1)C2=O | 67.971
Nc1c(C(=O)NCc2ccc(F)cc2F)c(=O)n(O)c2ncc(CCCCCCO)cc12 | 19.5833
COC(=O)CCc1c2c(c(O)c(=O)n1C(C)C)C(=O)N(Cc1ccc(F)c(Cl)c1)C2=O | 97.195
O=C(O)/C(O)=C/C(=O)c1cc(OCc2ccccc2)cc(OCc2ccccc2)c1 [XZ320, reference compound] | 62.3815
O=C1c2c(ccc(O)c2O)CN1Cc1ccc(F)c(Cl)c1 | 83.7072
Nc1c(C(=O)NCc2ccc(F)cc2F)c(=O)n(O)c2ncc(-c3ccccc3)cc12 | 29.6468
Cc1nnc(C(=O)NC(C)(C)c2nc(C(=O)NCc3ccc(F)cc3)c(O)c(=O)n2C)o1 | 36.5909
O=C(NCc1ccc(F)cc1F)c1c(NCCO)c2cccnc2n(O)c1=O | 44.0798
CCN1CCn2c(c3c(c(O)c2=O)C(=O)N(Cc2ccc(F)c(Cl)c2)C3=O)C1=O | 93.5244
COC(=O)CCc1cnc2c(c1)c(N)c(C(=O)NCc1ccc(F)cc1F)c(=O)n2O | 19.7322

###

# Target Desc: recombinant HTLV-1 IN (Human T-cell leukemia virus 1, UniProt P03362)
# Construct: made in house
# Protocol Notes: In vitro integration strand transfer assay with HTLV-1 IN
# Type: biochemical
# Measurement Setup: INSTI at 634 nM; Replicate 3
1 (yes) means recorded HTLV-1 IN strand transfer activity (No drug = 100) is 80% or above; 0 (no) means it is below 80%.

Compound | Assigned Label
COC(=O)CCc1c2c(c(O)c(=O)n1C(C)C)C(=O)N(Cc1ccc(F)c(Cl)c1)C2=O [XZ220] | 1 (yes)
CC(C)n1c(C(=O)N(C)C)c2c(c(O)c1=O)C(=O)N(Cc1ccc(F)c(Cl)c1)CC2 [XZ236, reference compound] | 0 (no)
O=C1c2c(ccc(O)c2O)CN1Cc1ccc(F)c(Cl)c1 [XZ90] | 1 (yes)
[N-]=[N+]=NCc1cccc(C(=O)/C=C(\O)C(=O)O)c1 [XZ319] | 1 (yes)
